# Tested on: PAH2 domain of mSin3A (Mus musculus, UniProt Q60520)
# Construct: expressed in transfected cells; host or cells: S. cerevisiae strain L40
# Sequence (Q60520 251-404): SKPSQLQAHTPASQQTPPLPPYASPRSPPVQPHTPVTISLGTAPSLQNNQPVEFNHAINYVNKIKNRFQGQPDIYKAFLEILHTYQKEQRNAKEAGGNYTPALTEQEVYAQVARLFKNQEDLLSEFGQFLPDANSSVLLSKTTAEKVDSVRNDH
# Protocol description: Directed two-hybrid assay (LexA-SID fusions with VP16PAH2, quantitative β-galactosidase)
# Type: cell-based
# Study conditions: yeast strain L40; fold higher
Where no end group is shown, it is not given here.
Value kind: affinity for PAH2 relative to wild-type SID 8-20

Substance	Measurement
E14A: minimal SID 8-20 with single mutation E14A, LexA fusion (NIQMLLAAADYLE; also: LexA fusion; UniProt Q05195 8-20, looked up, variant E14A)	approximately 2 fold
Q10A: minimal SID 8-20 with single mutation Q10A, LexA fusion (NIAMLLEAADYLE; also: LexA fusion; UniProt Q05195 8-20, looked up, variant Q10A)	approximately 2 fold
D17A: minimal SID 8-20 with single mutation D17A, LexA fusion (NIQMLLEAAAYLE; also: LexA fusion; UniProt Q05195 8-20, looked up, variant D17A)	approximately 2 fold

* * *

# Protocol description: Circular dichroism (CD) spectroscopy of SID peptides in TFE
# Type: physicochemical
# Study conditions: increasing TFE concentrations (1, 20, 50%)
Value kind: ability to adopt α-helical structure in TFE

Sequence chain	Measurement
GGGMNIQMLLEDADYLE [A15D SID, same mutation also tested as LexA-SID 8-20 fusion]	retain helical structure
GGGMNIQMLLEAADYDE [L19D SID, same mutation also tested as LexA-SID 8-20 fusion]	retain helical structure
